System: Bacillus cereus
Test: Antibacterial activity against Bacillus cereus MTCC 430; note: test concentration or dose not given here
Format: functional
Observed Property: inhibition zone (IZ) (mm)
Write the answer as a number in mm, unit excluded.

# count of solved cases: 5
smiles_input=Cc1cccc(Oc2nc(-c3ccc(NC(=O)Nc4ccc(Br)cc4)cc3)nc3ccccc23)c1 uom=mm value_observed=28
smiles_input=Cc1cccc(Oc2nc(-c3ccc(NC(=S)Nc4ccc(F)cc4)cc3)nc3ccccc23)c1 uom=mm value_observed=27
smiles_input=COc1ccc(NC(=O)Nc2ccc(-c3nc(Oc4cccc(C)c4)c4ccccc4n3)cc2)cc1 uom=mm value_observed=22
smiles_input=CCOc1ccc(NC(=O)Nc2ccc(-c3nc(Oc4cccc(C)c4)c4ccccc4n3)cc2)cc1 uom=mm value_observed=24
smiles_input=Cc1cccc(Oc2nc(-c3ccc(NC(=O)Nc4ccccc4)cc3)nc3ccccc23)c1 uom=mm value_observed=20

Fill in reported inhibition zone (IZ) for this entry: Cc1cccc(Oc2nc(-c3ccc(NC(=O)Nc4ccc(Cl)cc4)cc3)nc3ccccc23)c1
24

====

Reported inhibition zone (IZ) values for a set of molecules
System: Staphylococcus aureus
Test: Antibacterial activity against Staphylococcus aureus MTCC 96; note: test concentration or dose not given here
Type: functional
Write the answer as a number in mm, unit excluded.

smiles_input=Cc1cccc(Oc2nc(-c3ccc(NC(=O)Nc4ccccc4)cc3)nc3ccccc23)c1 uom=mm value_observed=22
smiles_input=Cc1ccc(NC(=S)Nc2ccc(-c3nc(Oc4cccc(C)c4)c4ccccc4n3)cc2)cc1 uom=mm value_observed=22
smiles_input=CCOc1ccc(NC(=S)Nc2ccc(-c3nc(Oc4cccc(C)c4)c4ccccc4n3)cc2)cc1 uom=mm value_observed=22
smiles_input=CCOc1ccc(NC(=O)Nc2ccc(-c3nc(Oc4cccc(C)c4)c4ccccc4n3)cc2)cc1 uom=mm value_observed=22

Look up and report measured inhibition zone (IZ) (Staphylococcus aureus) for the following molecule: COc1ccc(NC(=O)Nc2ccc(-c3nc(Oc4cccc(C)c4)c4ccccc4n3)cc2)cc1
23

Look up and report measured inhibition zone (IZ) (Staphylococcus aureus) for the following molecule: COc1ccc(NC(=S)Nc2ccc(-c3nc(Oc4cccc(C)c4)c4ccccc4n3)cc2)cc1
25

Look up and report measured inhibition zone (IZ) (Staphylococcus aureus) for the following molecule: Cc1cccc(Oc2nc(-c3ccc(NC(=O)Nc4ccc(Br)cc4)cc3)nc3ccccc23)c1
24

Look up and report measured inhibition zone (IZ) (Staphylococcus aureus) for the following molecule: CC1(C)S[C@@H]2[C@H](NC(=O)[C@H](N)c3ccccc3)C(=O)N2[C@H]1C(=O)O
30

Look up and report measured inhibition zone (IZ) (Staphylococcus aureus) for the following molecule: Cc1cccc(Oc2nc(-c3ccc(NC(=S)Nc4ccccc4)cc3)nc3ccccc23)c1
27

Look up and report measured inhibition zone (IZ) (Staphylococcus aureus) for the following molecule: Cc1cccc(Oc2nc(-c3ccc(NC(=O)Nc4ccc(F)cc4)cc3)nc3ccccc23)c1
22
